# measurementTarget: AmtriPGDH1 (Amborella trichopoda)
# Sequence (U5D351 73-618): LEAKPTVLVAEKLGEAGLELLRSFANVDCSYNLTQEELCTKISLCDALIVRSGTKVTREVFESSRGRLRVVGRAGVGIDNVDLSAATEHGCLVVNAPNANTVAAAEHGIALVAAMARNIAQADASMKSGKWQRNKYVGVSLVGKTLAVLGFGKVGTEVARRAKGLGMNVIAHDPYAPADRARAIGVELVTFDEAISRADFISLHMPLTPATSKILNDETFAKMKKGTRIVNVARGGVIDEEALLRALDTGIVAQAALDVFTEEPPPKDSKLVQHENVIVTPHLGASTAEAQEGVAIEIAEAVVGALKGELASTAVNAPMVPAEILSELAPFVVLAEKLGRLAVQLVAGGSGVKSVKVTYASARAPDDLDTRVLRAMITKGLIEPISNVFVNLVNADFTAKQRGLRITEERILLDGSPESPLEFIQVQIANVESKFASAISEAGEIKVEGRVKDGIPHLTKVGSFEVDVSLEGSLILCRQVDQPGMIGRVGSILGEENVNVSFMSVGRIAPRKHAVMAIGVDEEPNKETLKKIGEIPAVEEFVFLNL
# protocolNotes: spectrophotometric NADH formation at […] nm, Hill fit
pEC50: −log10 of the molar value.
readoutKind: pEC50

N[C@@H](CCS)C(=O)O [L-Homocysteine]
4.70

(1) N[C@@H](CO)C(=O)O [L-Serine]
(2) CSCC[C@H](N)C(=O)O [L-Methionine]
Input: // compare measured pEC50 between 1 and 2 ; output the lower one Return value: the label identifying the chosen record.
Output: 1

====

# measurementTarget: UniProtKB B7FAD2
# Sequence (B7FAD2 64-621): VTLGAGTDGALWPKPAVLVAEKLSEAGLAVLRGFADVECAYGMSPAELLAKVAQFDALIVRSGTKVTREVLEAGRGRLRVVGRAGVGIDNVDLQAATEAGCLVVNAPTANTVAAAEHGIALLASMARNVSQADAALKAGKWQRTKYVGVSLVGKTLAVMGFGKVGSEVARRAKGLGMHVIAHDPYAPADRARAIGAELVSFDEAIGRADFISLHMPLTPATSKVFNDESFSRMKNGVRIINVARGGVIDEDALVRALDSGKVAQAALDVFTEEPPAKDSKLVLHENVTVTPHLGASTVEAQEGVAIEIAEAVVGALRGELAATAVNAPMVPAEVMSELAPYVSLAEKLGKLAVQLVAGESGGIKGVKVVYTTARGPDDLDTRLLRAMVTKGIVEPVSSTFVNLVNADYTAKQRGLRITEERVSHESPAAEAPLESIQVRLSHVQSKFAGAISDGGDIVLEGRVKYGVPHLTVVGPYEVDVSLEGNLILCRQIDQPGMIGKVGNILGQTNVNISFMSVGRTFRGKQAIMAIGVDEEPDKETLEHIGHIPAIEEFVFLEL
# protocolNotes: spectrophotometric NADH formation at […] nm, Hill fit
readoutKind: pEC50
// returns pEC50 (minus log10 of molar concentration), number only

Input: GET pEC50 | system: UniProtKB B7FAD2 | item: C[C@H](N)C(=O)O
Output: 3.02
